Just for reference, the supplement of paper PMC10127200 is where these values come from.

- Test system: A549
- assay-info: Euclidean distance of Cell Painting phenotypic profile (signed KS, 77 features) to DMSO centroid (dimensionless distance); 5 or 10 uM (library dependent); higher = stronger phenotypic change vs DMSO (phenoactivity)
- experimental-conditions: 48 h
Where a name gives a salt, the structure may show the parent alone.
recorded-metric: Euclidean distance

Examples with answers:
INSERT INTO measurements (compound, recorded_metric, measured_result) VALUES
  ('CN[C@@H]1[C@H](O[C@H]2[C@H](O[C@H]3[C@H](O)[C@@H](O)[C@H](NC(=N)N)[C@@H](O)[C@@H]3NC(=N)N)O[C@@H](C)[C@]2(O)CO)O[C@@H](CO)[C@H](O)[C@H]1O [Dihydrostreptomycin sulfate]', 'Euclidean distance', 1.12),
  ('Nc1nc(/C(=C/CC(=O)O)C(=O)N[C@@H]2C(=O)N3C(C(=O)O)=CCS[C@H]23)cs1 [Ceftibuten dihydrate]', 'Euclidean distance', 0.568);

# context switch: different compound, same Euclidean distance
Requested read-out: Euclidean distance. Entry: COc1ccc(CC(C)NCC(O)c2ccc(O)c(NC=O)c2)cc1 (stereo not drawn) [Formoterol Hemifumarate]
0.672
